Target: T1, recombinant hPD-1 (construct not stated) (human, UniProt Q15116 25-167, limits assumed)
T1 construct: also called huPD-1; Human PD1
T1 sequence (Q15116 25-167 limits assumed): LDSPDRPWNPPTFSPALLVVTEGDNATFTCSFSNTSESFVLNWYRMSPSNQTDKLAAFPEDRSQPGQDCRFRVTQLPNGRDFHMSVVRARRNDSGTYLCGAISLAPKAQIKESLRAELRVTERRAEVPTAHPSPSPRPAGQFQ
Test: ELISA
measured.parameter: EC50
Show the value, then the unit it is measured in.

Some binders with recorded EC50:
XVT458-z2-m3 (antibody, V domains shown, IgG format; also called z2_XVT458m3) VH: QVQLVQSGAEVKKPGASVKVSCKASGYTFTNFYIHWVRQAPGQGLEWMGRIYPNYGITAYNQKFKDRVTMTVDTSTSTAYMELRSLRSDDTAVYYCARGYSYAMDYWGQGTTVTVSS VL: DIQMTQSPSSVSASVGDRVTITCSASQGISGDLNWYQQKPGKAPKLLIYHTSQRHSDVPSRFSGSGSGTDFTLTISSLQPEDFATYYCQGYSKDLLTFGGGTKLEIK = 89 pM
XVT458-z2-m6 (antibody, V domains shown, IgG format; also called z2_XVT458m6) VH: QVQLVQSGAEVKKPGASVKVSCKASGYTFTNFYIHWVRQAPGQGLEWMGSIYPNYGITAYNQKFKDRVTMTVDTSTSTAYMELRSLRSDDTAVYYCARGYSYAMDYWGQGTTVTVSS VL: DIQMTQSPSSVSASVGDRVTITCSASQGISGDLNWYQQKPGKAPKLLIYHTSQLHSDVPSRFSGSGSGTDFTLTISSLQPEDFATYYCQGYSKDLLTFGGGTKLEIK = 64 pM

Turning now to a further binder:
Tell me EC50 reported for XVT458-z2-m5 (antibody, V domains shown, IgG format; also called z2_XVT458m5) VH: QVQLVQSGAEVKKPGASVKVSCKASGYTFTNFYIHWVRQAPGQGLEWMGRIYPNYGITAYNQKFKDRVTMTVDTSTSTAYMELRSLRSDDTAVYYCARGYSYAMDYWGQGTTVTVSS VL: DIQMTQSPSSVSASVGDRVTITCSASQGIYGDLNWYQQKPGKAPKLLIYHTSSRHSGVPSRFSGSGSGTDFTLTISSLQPEDFATYYCQAYSKDLLTFGGGTKLEIK
51 pM
